pKi: −log10 of the molar value.
These records show pKi for human histamine H3 receptor (Homo sapiens).
property name: pKi

substance smiles | target under test | reported
c1cc(N2CCC(CN3CCCC3)CC2)ccc1CN1CCOCC1 | human histamine H3 receptor (Homo sapiens) | 7.92
c1cc(N2CCC(N3CCCCC3)CC2)ccc1CN1CCCCC1 | human histamine H3 receptor (Homo sapiens) | 8.57
c1cc(N2CCC(CN3CCOCC3)CC2)ccc1CN1CCCCC1 | human histamine H3 receptor (Homo sapiens) | 8.30

(I) OCC1CCN(Cc2ccc(N3CCC(CN4CCCC4)CC3)c(C(F)(F)F)c2)CC1
(II) c1cc(N2CCC(N3CCCC3)CC2)ccc1CN1CCOCC1
Qu. I'd appreciate it if you could identify which of I and II has the greater pKi. Pick one and reply with its label.
Ans. II
(II: 7.77, I: 6.77)

* * *

These records show Ki for human histamine H3 receptor (Homo sapiens, UniProt Q9Y5N1).
property name: Ki (nM)

Examples with their reported Ki follow.
compound | property name | reported
c1cc(CN2CCCC2)cc(N2CCC(CN3CCCC3)CC2)c1 [Example 34] | Ki | 6
CN1CCN(CC2CCN(c3ccc(CN4CCCC4)cc3)CC2)CC1 [Example 27] | Ki | 1.4

(1) Cc1cc(CN2CCCC2)ccc1N1CCC(CN2CCCC2)CC1 [Example 74]
(2) CN(C)Cc1ccc(N2CCC(CN3CCCC3)CC2)cc1 [Example 42]
(3) c1cc(N2CCC(CN3CCSCC3)CC2)ccc1CN1CCCC1 [Example 29]
Qu. Put the entries in order of Ki, starting with the largest number. Please list the labels in the order you were asked to rank them.
Ans. 2, 3, 1
(2: 5 nM, 3: 2 nM, 1: 1 nM)

* * *

target under test: human histamine H3 receptor (Homo sapiens, UniProt Q9Y5N1)
Sequence (Q9Y5N1 whole entry): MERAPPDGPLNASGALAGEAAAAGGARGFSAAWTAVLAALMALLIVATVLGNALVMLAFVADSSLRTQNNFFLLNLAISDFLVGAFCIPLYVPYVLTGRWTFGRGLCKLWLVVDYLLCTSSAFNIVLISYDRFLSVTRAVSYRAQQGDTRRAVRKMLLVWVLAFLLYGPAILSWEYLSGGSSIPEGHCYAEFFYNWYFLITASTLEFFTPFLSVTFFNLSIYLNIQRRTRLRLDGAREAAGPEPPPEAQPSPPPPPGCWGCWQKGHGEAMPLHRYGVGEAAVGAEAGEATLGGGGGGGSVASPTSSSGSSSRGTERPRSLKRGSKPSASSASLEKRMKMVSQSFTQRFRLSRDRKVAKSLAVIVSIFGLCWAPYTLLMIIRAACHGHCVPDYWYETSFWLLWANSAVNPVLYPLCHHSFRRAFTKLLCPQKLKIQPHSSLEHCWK
pKi: −log10 of the molar value.
property name: pKi

Examples with their reported pKi follow.
compound | pKi
FC(F)(F)c1cc(N2CCC(CN3CCCC3)CC2)ccc1CN1CCCCC1 [Example 72] | 8.10
c1cc(N2CCC(CN3CCCCC3)CC2)ccc1CN1CCCC1 [Example 30] | 9.00

(P) Fc1cc(CN2CCC(c3ccccc3)CC2)ccc1N1CCC(CN2CCCC2)CC1 [Example 78]
(Q) FC(F)(F)c1cc(CN2CCCCC2)ccc1N1CCC(CN2CCCC2)CC1 [Example 68]
Qu. Of P and Q , which shows the smaller pKi value? Pick one and reply with its label.
Ans. Q
(Q: 7.85, P: 8.15)

(a) Cc1cc(CN2CCCCC2)ccc1N1CCC(CN2CCCC2)CC1 [Example 75]
(b) c1cc(CN2CCOCC2)cc(N2CCC(CN3CCCC3)CC2)c1 [Example 33]
(c) FC(F)(F)c1ccc(C2CCN(Cc3ccc(N4CCC(CN5CCCC5)CC4)cc3C(F)(F)F)CC2)cc1 [Example 77]
Qu. Arrange the 3 compounds by rising pKi, starting with the smallest. Please list the labels in the order you were asked to rank them.
Ans. c, b, a
(c: 6.80, b: 7.70, a: 8.22)

(1) c1cc(N2CCC(CN3CCCC3)CC2)ccc1CN1CCSCC1 [Example 40]
(2) c1cc(N2CCC(CN3CCCCCCCCCCCC3)CC2)ccc1CN1CCCC1 [Example 24]
Qu. I'd appreciate it if you could identify which of 1 and 2 has the greater pKi. Pick one and reply with its label.
Ans. 1
(1: 8.40, 2: 7.64)
